Assignment: determine reported pIC50 for the given compounds.
Target: human beta-glucocerebrosidase (GCase, CEREZYME) (Homo sapiens, UniProt P04062, R534H)
Sequence (P04062 40-536 R534H): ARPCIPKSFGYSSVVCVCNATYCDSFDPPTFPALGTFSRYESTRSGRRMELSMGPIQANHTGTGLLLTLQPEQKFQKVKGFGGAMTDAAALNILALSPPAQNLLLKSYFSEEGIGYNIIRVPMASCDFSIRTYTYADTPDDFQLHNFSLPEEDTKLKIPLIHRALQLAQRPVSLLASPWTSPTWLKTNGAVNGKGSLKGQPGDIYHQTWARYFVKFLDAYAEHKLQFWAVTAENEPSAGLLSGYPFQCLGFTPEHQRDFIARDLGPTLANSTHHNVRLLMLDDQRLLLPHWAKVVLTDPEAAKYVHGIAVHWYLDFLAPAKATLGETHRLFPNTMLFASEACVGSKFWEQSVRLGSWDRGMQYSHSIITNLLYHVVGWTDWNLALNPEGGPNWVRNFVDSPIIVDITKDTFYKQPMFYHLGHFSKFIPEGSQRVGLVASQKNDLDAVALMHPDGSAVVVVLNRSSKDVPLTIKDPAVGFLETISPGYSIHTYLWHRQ
Test: GCase activity fluorometric assay (inhibition, kinetics, pH dependence)
pIC50: −log10 of the molar value.

Consider the following items and state reported pIC50 for each.
1. CN(Cc1cc(Br)cc(Br)c1N)C1CCCCC1
2. O=C(Nc1ccc(Br)cc1Br)c1ccccc1 [Dibromophenyl Benzamide]
3. CCC(=O)Oc1c(Br)cc(Br)cc1Br [Tribromophenyl Propanoate]

Result:
[4.22, "< 3.00", "< 3.00"]
